# Experiment Notes: mitochondrial membrane potential change in A549 cells, profiling panel, cell-based, JC-1 fluorescence, basal, 24 h, 100 nL (AID 1138);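 further: A549 lung adenocarcinoma cells under basal conditions with no added stimulus; test concentration not given here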
# Experimental Setup: higher = more signal
Decision: z-score >= 0.9 yields y, all other cases yield n.

>  <Compound>
CN(C)CCCC[C@@H]1NC(=O)[C@@H]2C[C@H](C(=O)NCCCCCCNC(=O)CS)[C@H](c3cccc(OCCO)c3)N2C1=O

>  <Class Assignment>
y

$$$$
>  <Compound>
CCCCC(O)C1C=CC2C(=O)N(C)C(=O)C2N1Nc1ccccc1 (stereo not given)

>  <Class Assignment>
n

$$$$
>  <Compound>
COc1ccc(CCNC(=O)[C@@H]2c3ccccc3C(=O)N(CC34CC5CC(CC(C5)C3)C4)[C@H]2c2ccc(CO)cc2)cc1

>  <Class Assignment>
n

$$$$
>  <Compound>
C#CCN([C@H](/C=C/C1CC1)[C@@H](O)Cc1ccccc1)[C@@H](Cc1ccccc1)C(=O)OC

>  <Class Assignment>
y

$$$$
>  <Compound>
CC1CC/C=C\[C@H]2OC34C=CCN(c5ccc(Cl)cc5)C(=O)[C@H]3N(CCCO)C(=O)[C@]4(C)C2C(=O)O1 (stereo not given in full)

>  <Class Assignment>
n

$$$$
>  <Compound>
C=C(CCCC)/C(=C/C[C@H](OC(C)=O)c1cccc(OCCO)c1)c1cc(C(=O)OC)ccc1OC

>  <Class Assignment>
y

$$$$
>  <Compound>
CO[C@H]1O[C@H](CO)[C@@H](OC(=O)Nc2ccc(C(F)(F)F)cc2)[C@H](OC(=O)Nc2ccccc2-c2ccccc2)[C@@H]1OC(=O)Nc1ccccc1-c1ccccc1

>  <Class Assignment>
n

$$$$
>  <Compound>
C[C@]1(C(=O)NCC(F)(F)F)c2ccccc2C(=O)N(Cc2ccc(OC(F)(F)F)cc2)[C@H]1c1ccc(CO)cc1

>  <Class Assignment>
n

$$$$
>  <Compound>
CC(=O)n1cc(C(O)C2C=CC3C(=O)N(c4ccccc4)C(=O)C3N2Nc2ccccc2F)c2ccccc21 (stereo not given)

>  <Class Assignment>
n

$$$$
>  <Compound>
CC(C)[C@@H](C(=O)O)n1cc(-c2ccccc2)nn1

>  <Class Assignment>
n

$$$$
>  <Compound>
COC(=O)[C@]1(CO)N=C(c2ccc(OCCCO)cc2)O[C@@H]1c1ccccc1CN=[N+]=[N-]

>  <Class Assignment>
n

$$$$
>  <Compound>
C=C(CC1([C@@H](NP(=O)(c2ccccc2)c2ccccc2)[C@H]2C[C@@H]2CCN(C(=O)OCC)S(=O)(=O)c2ccc(C)cc2)CC1)c1ccccc1

>  <Class Assignment>
n

$$$$
>  <Compound>
CC(C)[Si](C#CCCCC#N)(O[C@H](c1ccccc1)c1cn([C@H](C)c2ccccc2)nn1)C(C)C

>  <Class Assignment>
y

$$$$
